MEASURED PROPERTY: glass transition temperature (°C)

Some molecules with recorded glass transition temperature:
Any idea what glass transition temperature was measured for *CCCOC(=O)CCCCC(=O)O* (repeat unit) ? -55.00

Same read-out for *Oc1ccc2ccc(Oc3ccc(C(=O)Nc4ccc(Oc5ccc(S(=O)(=O)c6ccc(Oc7ccc(NC(=O)c8ccc(*)cc8)cc7)cc6)cc5)cc4)cc3)cc2c1 (repeat unit) ? 227.00

Same read-out for *Oc1cccc(Oc2ccc(C(=O)Oc3cccc(OC(=O)c4ccc(*)cc4)c3)cc2)c1 (repeat unit) ? 131.00

Same read-out for *c1cccc(Oc2ccc(P(=O)(c3ccccc3)c3ccccc3)c(Oc3cccc(-n4c(=O)c5cc6c(=O)n(*)c(=O)c6cc5c4=O)c3)c2)c1 (repeat unit) ? 251.00

Same read-out for *Oc1ccc(C2(C)CCC(C(C)(C)c3ccc(Oc4ccc(C(=O)c5ccc(*)cc5)cc4)cc3)CC2)cc1 (repeat unit) ? 200.00

[a] *CCN(CCOC(=O)c1ccc(C(=O)O*)cc1)c1ccc(-c2nc3ccc([N+](=O)[O-])cc3o2)cc1 (repeat unit)
[b] *Oc1ccc(CC(NC(=O)Cc2ccc(OC(=O)CCCCCCC(*)=O)cc2)C(=O)OCCCCCCCC)cc1 (repeat unit)
Return label of the item with the larger glass transition temperature. Candidates: a , b . Your choice should be expressed through its label. a
(a: 208.00 °C, b: 22.00 °C)

----------
MEASURED PROPERTY: glass transition temperature (°C)

Any idea what glass transition temperature was measured for */C=C/c1cc(OCCCCCCC)c(/C=C/c2ccc(*)cc2)cc1OCCCCCCC (repeat unit) ? 46.00

Same read-out for *c1ccc(C(Cl)(Cl)C(*)Cl)cc1 (repeat unit) ? 160.00

Same read-out for *CC(*)CCCCCCCCCCCC (repeat unit) ? 10.00

Same read-out for */C=C/CCC* (repeat unit) ? -100.08

Same read-out for *CCCCCCCCCCOc1ccc(/C=C/c2ccc(OCCCCCCCCCCOP(=O)(O*)OCCCCCCCCCCOc3ccc(/N=N/c4ccc(Cl)cc4)cc3)cc2)cc1 (repeat unit) ? 60.00

[I] *C(=O)Nc1ccc(C2(c3ccc(N4C(=O)c5ccc(*)cc5C4=O)cc3)CCC(C)CC2)cc1 (repeat unit)
[II] *c1ccc(Oc2ccc(N3C(=O)C(Cl)=C(Oc4ccc(C(C)(C)c5ccc(OC6=C(Cl)C(=O)N(*)C6=O)cc5)cc4)C3=O)cc2)cc1 (repeat unit)
// compare: I vs II , metric glass transition temperature, want the smaller Your choice should be expressed through its label. II
(II: 175.00 °C, I: 322.00 °C)

----------
MEASURED PROPERTY: glass transition temperature (°C)

Any idea what glass transition temperature was measured for *Oc1cc(OC(=O)c2ccc(OCCCC)cc2)c(OC(=O)CCCCCCCC(*)=O)cc1OC(=O)c1ccc(OCCCC)cc1 (repeat unit) ? 38.00

[I] *O[Si](*)(C)CCCOc1ccc(C(=O)Oc2ccc(-c3ccc(OC(=O)CCCCC(=O)OC4CC(C)CCC4C(C)C)cc3)cc2)cc1 (repeat unit)
[II] *Oc1ccc2cc(OC(=O)c3ccc(-c4ccc(C(*)=O)cc4)cc3-c3ccccc3)ccc2c1 (repeat unit)
Return label of the item with the larger glass transition temperature. Candidates: I , II . Your choice should be expressed through its label. II

----------
MEASURED PROPERTY: glass transition temperature (°C)

Any idea what glass transition temperature was measured for *c1c(C)cc(C(C)(C)c2cc(C)c(S(*)(=O)=O)c(C)c2)cc1C (repeat unit) ? 230.00

Same read-out for *CC(O*)c1ccccc1 (repeat unit) ? 34.00

Same read-out for *Oc1ccc(C(C)(C)c2ccc(OC(=O)c3ccc(OCCCCCCCCCCOc4ccc(C(*)=O)cc4)cc3)cc2)cc1 (repeat unit) ? 77.00

[A] *Oc1ccc(OC(=O)c2ccc(C(*)=O)cc2Oc2ccc(C(C)(C)c3ccccc3)cc2)cc1 (repeat unit)
[B] *Oc1ccc(C(c2ccc(Oc3ccc(C(=O)c4ccc(C(C)(C)c5ccc(C(=O)c6ccc(*)cc6)cc5)cc4)cc3)cc2)(C(F)(F)F)C(F)(F)F)cc1 (repeat unit)
// compare: A vs B , metric glass transition temperature, want the smaller Your choice should be expressed through its label. A
(A: 93.00 °C, B: 179.00 °C)

[1] *c1ccc2c(c1)C(=O)N(c1cccc(C(F)(F)C(F)(F)C(F)(F)C(F)(F)C(F)(F)c3cccc(N4C(=O)c5ccc(C(F)(F)C(F)(F)C(*)(F)F)cc5C4=O)c3)c1)C2=O (repeat unit)
[2] *c1ccc2c(c1)C(CCCCCCCC)(CCCCCCCC)c1cc(-c3ccc4c(c3)C(c3ccc(-c5nnc(-c6ccc(C(C)(C)C)cc6)o5)cc3)(c3ccc(-c5nnc(-c6ccc(C(C)(C)C)cc6)o5)cc3)c3cc(*)ccc3-4)ccc1-2 (repeat unit)
[3] *CC(*)c1c(F)c(F)c(OCC(F)(F)C(F)(F)F)c(F)c1F (repeat unit)
[4] *CC(*)(C)C(=O)OCCCCCCCCCCCn1c2ccccc2c2ccccc21 (repeat unit)
// ascending sort on recorded glass transition temperature Put the labels in the requested order and write them down. 4, 3, 1, 2
(4: 31.00 °C, 3: 61.00 °C, 1: 111.00 °C, 2: 213.00 °C)

[A] *c1ccc(C#Cc2cc(OCCCCCCCC)c(C#Cc3ccc(-c4nnc(*)o4)cc3)cc2OCCCCCCCC)cc1 (repeat unit)
[B] *c1c(C)cc(-c2cc(C)c(N3C(=O)c4ccc(-c5ccc6c(c5)C(=O)N(*)C6=O)cc4C3=O)c(C)c2)cc1C (repeat unit)
// compare: A vs B , metric glass transition temperature, want the smaller Your choice should be expressed through its label. A
(A: 130.00 °C, B: 285.00 °C)
